Tested on: MS2 coat protein
Test: apparent KD of MS2 coat protein; designed switch direction (-1 OFF switch, 1 ON switch): -1; higher = weaker reporter binding
Conditions: input ligand: none
READOUT: apparent KD of MS2 coat protein (µM)
# value in µM; strip the unit string

AAUGAUUGACGAGGAUAUUGUGGUGAAACACGACGAGAAGGCGUAUGUCACAUGAGGAUCACCCAUGUGAACUUUGUGGAUAUA [Ex NG1 #70] (Eterna round: R96, puzzle: Exclusion NG 1); 0.0388

Reported apparent KD of MS2 coat protein ( AUGUGCACGCUGCGAUCCUACAUGAGGAUCACCCAUGUGGUCUGGUGGCGUGGGUCACCGGACUUGGCUCGUCUUGG [salish99_S_TOV1_R5_075] (Eterna round: R97, puzzle: Sensor, turn-off variant 1) ) = 0.17
